Quick list: composite z-score per entry.
System: Neuregulin-1 EGF-like domain
Assay: small molecules binding NRG1 EGF domain – biochemical, small-molecule microarray, 635 nm fluorescence, primary screen (AID 1081);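 note: binding of the protein to compounds printed on small-molecule microarray slides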
Details: higher = more signal
VALUE KIND: composite z-score

COMPOUND: [N-]=[N+]=Nc1ccccc1C[C@]1(C(=O)N2CCOCC2)N=C(c2ccc(OCCCO)cc2)O[C@H]1c1ccccc1N=[N+]=[N-]
MEASURED: 1.36

COMPOUND: CCCC[C@H]1C[C@@H]1[C@@H]1N(C(C)=O)[C@H](c2cccc(OC)c2)CC12CC2
MEASURED: -0.175

COMPOUND: COCCOC(=O)N1C(=O)[C@@]2(c3ccccc31)[C@H](C(=O)N1CCN(c3ncccn3)CC1)[C@H]1C(=O)O[C@H](c3ccccc3)[C@H](c3ccccc3)N1[C@@H]2c1ccccc1OCCO
MEASURED: 1.13

COMPOUND: NCCCCCCNC(=O)[C@@H]1C[C@@H]2C(=O)N3CCC[C@H]3C(=O)N2[C@@H]1c1cccc(OCCO)c1
MEASURED: 1.36

COMPOUND: OCCCC1=CC(c2ccc(CN3CCCC3)cc2)N(Cc2cccc(OC(F)(F)F)c2)CC1 (configuration not stated)
MEASURED: 0.0735

COMPOUND: C=CCC(OC(C)=O)[C@@H]1[C@@H](N(Cc2ccc(-c3cccc(C(F)(F)F)c3)o2)C(=O)c2ccc(-c3ccccc3)cc2)c2cc(OCCCO)ccc2N1C(=O)c1ccc2ccccc2c1 (some centres not stated)
MEASURED: -0.373

COMPOUND: Cc1ccc(S[C@]2(C(=O)NCC(F)(F)F)CC(=O)N(Cc3ccccc3C(F)(F)F)[C@@H]2c2ccc(CO)cc2)cc1
MEASURED: 0.573

###

Test system: glycogen synthase kinase-3 (GSK3A per assay name; protocol says GSK3B)
Experiment: compounds binding glycogen synthase kinase-3 – biochemical, small-molecule microarray, 635 nm fluorescence, GSK3A, primary screen (AID 1103); note: the record names both GSK3A and GSK3B
Conditions: fluorescence 635 nm, higher = more signal

COMPOUND: COC(=O)c1cccc([C@H]2OC(=CC(=O)OC(C)C)C[C@@H](c3cccc(C(=O)OC)c3)O2)c1
composite z-score: 1.33

COMPOUND: C=CCOC(=O)[C@@H]1[C@H]2C(=O)O[C@H](c3ccccc3)[C@H](c3ccccc3)N2[C@H](c2ccc(OCCOC(=O)[C@H]3C[C@H]4C(=O)N5CCC[C@H]5C(=O)N4[C@H]3c3cccc(OCCO)c3)cc2)[C@@]12C(=O)Nc1ccc(I)cc12
composite z-score: 1.24

COMPOUND: CC(C)=CCCC=C(C)C(O)C1C=CC2C(=O)N(c3ccccc3)C(=O)C2N1Nc1ccc(C#N)cc1 (stereo not drawn)
composite z-score: 1.3

###

Test system: Plasmodium falciparum Sir2 (PF13_0152, Sir2A)
Assay: Plasmodium falciparum Sir2A binding compounds – biochemical, small-molecule microarray, 635 nm fluorescence, primary screen (AID 1098);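 note: score merges spot fluorescence intensity with its signal-to-noise ratio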
Conditions: fluorescence 635 nm, higher = more signal
Please mark satisfied if the recorded composite z-score is equal to or greater than 0.8, and not satisfied if it falls below.

MOLECULE: O=C1[C@@H]2[C@@H](CC(COc3ccccc3)=C([C@H](O)CCc3ccccc3)[C@@H]2CO)C(=O)N1Cc1ccccc1
TEST TARGET: Plasmodium falciparum Sir2 (PF13_0152, Sir2A)
LABEL CLASS: not satisfied

MOLECULE: O=C1C[C@@](C(=O)NCc2ccccc2)(c2ccc([N+](=O)[O-])cc2)[C@@H](c2ccc(CO)cc2)N1C1CCCCC1
TEST TARGET: Plasmodium falciparum Sir2 (PF13_0152, Sir2A)
LABEL CLASS: satisfied

MOLECULE: CCCCCCc1nc(-c2ccc(-c3ccc(Cl)c(Cl)c3)o2)cc2c1[Si](C(C)C)(C(C)C)OC2
TEST TARGET: Plasmodium falciparum Sir2 (PF13_0152, Sir2A)
LABEL CLASS: not satisfied

MOLECULE: CCN(CC)c1ccc(N2CC=CC34O[C@@H]5C=CCCOC(=O)C5[C@H]3C(=O)N(C(C)CO)[C@@H]4C2=O)cc1 (stereo partly drawn)
TEST TARGET: Plasmodium falciparum Sir2 (PF13_0152, Sir2A)
LABEL CLASS: satisfied

MOLECULE: CN1C(=O)C2C=CC(C(O)c3ccc(-c4ccccc4)s3)N(NC(=O)OC(C)(C)C)C2C1=O (stereo not drawn)
TEST TARGET: Plasmodium falciparum Sir2 (PF13_0152, Sir2A)
LABEL CLASS: satisfied

MOLECULE: CC(C)N1C(=O)c2ccccc2[C@](C)(C(=O)NCC(F)(F)F)[C@@H]1c1ccc(CO)cc1
TEST TARGET: Plasmodium falciparum Sir2 (PF13_0152, Sir2A)
LABEL CLASS: not satisfied

MOLECULE: O=C(NC1CC1)[C@@H]1c2ccccc2C(=O)N(CC23CC4CC(CC(C4)C2)C3)[C@H]1c1ccc(CO)cc1
TEST TARGET: Plasmodium falciparum Sir2 (PF13_0152, Sir2A)
LABEL CLASS: not satisfied

MOLECULE: CC(C)C(=C=CC[C@H](O)c1ccccc1OCCO)C[C@H](O)c1cc(Cl)cc(Cl)c1O
TEST TARGET: Plasmodium falciparum Sir2 (PF13_0152, Sir2A)
LABEL CLASS: satisfied

###

Target: NADPH oxidase 5 (Homo sapiens) (UniProt Q96PH1)
Sequence (Q96PH1 whole entry, looked up): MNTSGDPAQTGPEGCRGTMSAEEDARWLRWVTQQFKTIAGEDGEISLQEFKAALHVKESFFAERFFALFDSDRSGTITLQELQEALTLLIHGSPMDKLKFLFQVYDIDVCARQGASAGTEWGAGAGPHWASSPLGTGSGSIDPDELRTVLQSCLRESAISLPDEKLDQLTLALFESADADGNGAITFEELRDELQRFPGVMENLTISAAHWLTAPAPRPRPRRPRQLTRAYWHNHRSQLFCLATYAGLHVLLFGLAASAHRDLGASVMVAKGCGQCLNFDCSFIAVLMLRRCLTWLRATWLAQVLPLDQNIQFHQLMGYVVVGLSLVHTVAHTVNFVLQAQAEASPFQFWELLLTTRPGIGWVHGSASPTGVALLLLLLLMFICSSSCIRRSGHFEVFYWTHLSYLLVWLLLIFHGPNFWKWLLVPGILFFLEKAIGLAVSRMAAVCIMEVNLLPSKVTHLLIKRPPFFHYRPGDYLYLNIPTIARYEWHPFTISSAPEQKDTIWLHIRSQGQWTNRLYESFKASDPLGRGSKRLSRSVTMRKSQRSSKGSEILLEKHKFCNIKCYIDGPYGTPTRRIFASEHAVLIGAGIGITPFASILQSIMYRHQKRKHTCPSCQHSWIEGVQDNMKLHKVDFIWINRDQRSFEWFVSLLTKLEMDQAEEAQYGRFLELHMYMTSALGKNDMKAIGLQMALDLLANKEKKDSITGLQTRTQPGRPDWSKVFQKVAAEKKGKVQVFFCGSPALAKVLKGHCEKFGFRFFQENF
Experiment: compounds shifting NOX5 Amplex Red fluorescence – cell-based, HEK293-NOX5, NOX inhibitor project, primary screen (AID 1161)
Details: HEK293-NOX5, ionomycin, 45 min, higher = more signal
Listed below: z-score values for each entry.

COMPOUND: CC(C)[Si](C#CCCc1ccccc1)(O[C@H](c1ccccc1)c1cn(Cc2ccccc2)nn1)C(C)C
z-score: -3.17
//
COMPOUND: COC(=O)C1=CC(CCCO)=CC(c2cccs2)N(Cc2cc3c(cc2Br)OCO3)C=C1C(=O)OC (configuration not stated)
z-score: 1.05
//
COMPOUND: C=C(CCCC)/C(=C/C[C@H](OC(=O)c1ccncc1)c1cccc(OCCO)c1)c1cnc2ccccc2c1
z-score: -1.82
//
COMPOUND: COCCOC(=O)N1C(=O)[C@@]2(c3cc(C#CCNC(N)=O)ccc31)[C@H](C(=O)Nc1nc3ccccc3s1)[C@H]1C(=O)O[C@H](c3ccccc3)[C@H](c3ccccc3)N1[C@@H]2c1ccccc1OCCO
z-score: 0.934
//
COMPOUND: COC(=O)C(CC#Cc1ccc2c(c1)[C@]1(C(=O)N2)[C@H](C(=O)NC[C@H](O)c2ccccc2)[C@H]2C(=O)O[C@H](c3ccccc3)[C@H](c3ccccc3)N2[C@@H]1c1ccccc1OCCO)C(=O)OC
z-score: -2.45
//
COMPOUND: CC(C)(C)N1CC=CC23O[C@@H]4C=CCOC(=O)[C@@H]4[C@H]2C(=O)N(CCO)[C@@H]3C1=O (some centres not stated)
z-score: 1.59
//
COMPOUND: C=C(CCCC)/C(=C/C[C@H](OC(C)=O)c1cccc(OCCO)c1)c1cnc2ccccc2c1
z-score: -1.76

###

Test: calcein-AM signal in unstimulated myeloma cells – cell-based, calcein-AM fluorescence, 48 h, PK04 Diversity Set, profiling panel (AID 1166);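 note: cells grown under basal conditions without added stimulus; test concentration not given here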
Conditions: RPMI8226 myeloma viability, higher = more signal
VALUE KIND: z-score

COMPOUND: COCCCNC(=O)[C@@]1(CCC(=O)OC(C)(C)C)COC(c2ccc(OCCCO)cc2)=N1
VALUE KIND: z-score
MEASURED: -0.24
--
COMPOUND: CCCCCCc1nc(-c2ccc(-c3ccc(Cl)c(Cl)c3)o2)cc2c1[Si](C(C)C)(C(C)C)OC2
VALUE KIND: z-score
MEASURED: -4.4
--
COMPOUND: CCOC(=O)c1cn(C[C@H](Cc2ccccc2)NC(=O)N[C@H](CO)CCc2oc(C(C)=O)c(C(=O)OC)c2C(=O)OC)nn1
VALUE KIND: z-score
MEASURED: -1.88
--
COMPOUND: O=C1NC(=O)C2C1C=CC(C(O)c1ccc(B(O)O)cc1)N2Nc1ccc(Cl)cc1Cl (stereo not drawn)
VALUE KIND: z-score
MEASURED: -1.58
--
COMPOUND: CC(C)C(=C=CC[C@H](O)c1ccccc1OCCO)C[C@H](O)c1cc(Cl)cc(Cl)c1O
VALUE KIND: z-score
MEASURED: -3.2
--
COMPOUND: O=C1C2C=CC(C(O)C3CCCCC3)N(n3cnnc3)C2C(=O)N1Cc1ccccc1 (stereo not drawn)
VALUE KIND: z-score
MEASURED: -0.441
--
COMPOUND: Cc1ccc(S[C@]2(C(=O)NCC(F)(F)F)CC(=O)N(Cc3ccccc3C(F)(F)F)[C@@H]2c2ccc(CO)cc2)cc1
VALUE KIND: z-score
MEASURED: 0.0646
--
COMPOUND: COc1ccc(C#Cc2ccc3c(c2)[C@]2(C(=O)N3)[C@H](C(=O)O)[C@H]3C(=O)O[C@H](c4ccccc4)[C@H](c4ccccc4)N3[C@@H]2c2ccccc2OCCO)cc1
VALUE KIND: z-score
MEASURED: -4.18
